Value source: patent US20230413823A1

- ASSAY NOTES: Solubility in organic loading and leave-in solvents
- CONDITION: DMSO, organic solvent or mixture
OBSERVATION TYPE: solubility
Write the numeric value and follow it with the unit.

Request: Answer with the recorded solubility of `C=C(C)[C@@H]1CCC(C)=C[C@H]1c1c(O)cc(CCCCC)cc1O` only.
Response: 200 mg/mL

###

- ASSAY NOTES: Solubility in organic loading and leave-in solvents
- CONDITION: GET424, organic solvent or mixture
OBSERVATION TYPE: solubility
// unit must come after the numeric part

Request: Item `C=C(C)[C@@H]1CCC(C)=C[C@H]1c1c(O)cc(CCCCC)cc1O` : provide solubility
Response: 10000 µg/mL

###

- ASSAY NOTES: physchem
- CONDITION: organic solvent or mixture
OBSERVATION TYPE: solubility (mg/mL)
Answer in mg/mL, number only, no unit symbol.

Request: Please indicate solubility recorded for CC(C)CC(C)c1sccc1NC(=O)c1cn(C)nc1C(F)(F)F (stereo not shown)
Response: 200
